Molecular target: T1, human MSLN-R3 on HEK293T-hMSLN-R3 recombinant cells (human, UniProt Q13421 487-606)
T1 construct: the C-terminal limit is uncertain; also called human MSLN-R3 membrane protein
T1 sequence (Q13421 495-614): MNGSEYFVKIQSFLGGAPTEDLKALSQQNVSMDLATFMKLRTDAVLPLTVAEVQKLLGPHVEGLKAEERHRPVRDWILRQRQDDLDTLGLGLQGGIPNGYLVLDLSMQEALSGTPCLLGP
Experiment: FACS, HEK293T-hMSLN-R3 cells
Each entry below carries its recorded Maximum_MFI.
Lab book: enter the figure in MFI, no units written.

Observe how each entry below is paired with its result.
BINDER | UNIT SYMBOL | Maximum_MFI
F3.80.22-H5 (scFv, not shown: small tags and cut ends, also called S009-F3.80.22 humanized antibody VL1a + VH1) scFv: DIVMTQTPLSLPVTPGEPASISCRSSQSLEHNDGNTYLHWFLQKPGQSPQLLIYKVSNRFSGVPDRFSGSGSGTDFTLKISRVEAEDVGVYYCSQSTHVPFTFGQGTKLEIKGGGGSGGGGSGGGGSEVQLVQSGAEVKKPGATVKISCKVSGYTFTDYEIHWVQQAPGKGLEWMGAFDPEIGGSAYNQKFKDRVTITADKSTDTAYMELSSLRSEDTAVYYCTDYYGSSSGYFDVWGQGTTVTVSS | MFI | 1370
F3.80.22-H2 (scFv, not shown: small tags and cut ends, also called S009-F3.80.22 humanized antibody VL1 + VH2) scFv: DIVMTQTPLSLPVTPGEPASISCRSSQSLEHNNGNTYLHWFLQKPGQSPQLLIYKVSNRFSGVPDRFSGSGSGTDFTLKISRVEAEDVGVYYCSQSTHVPFTFGQGTKLEIKGGGGSGGGGSGGGGSEVQLVQSGAEVKKPGATVKISCKASGYTFTDYEIHWVQQAPGKGLEWMGAFDPEIGGSAYNQKFKDRVTITADKSTSTAYMELSSLRSEDTAVYYCTDYYGSSSGYFDVWGQGTTVTVSS | MFI | 1790
F3.80.22-H6 (scFv, not shown: small tags and cut ends, also called S009-F3.80.22 humanized antibody VL1a + VH2) scFv: DIVMTQTPLSLPVTPGEPASISCRSSQSLEHNDGNTYLHWFLQKPGQSPQLLIYKVSNRFSGVPDRFSGSGSGTDFTLKISRVEAEDVGVYYCSQSTHVPFTFGQGTKLEIKGGGGSGGGGSGGGGSEVQLVQSGAEVKKPGATVKISCKASGYTFTDYEIHWVQQAPGKGLEWMGAFDPEIGGSAYNQKFKDRVTITADKSTSTAYMELSSLRSEDTAVYYCTDYYGSSSGYFDVWGQGTTVTVSS | MFI | 1440
F3.80.22-H4 (scFv, not shown: small tags and cut ends, also called S009-F3.80.22 humanized antibody VL1 + VH4) scFv: DIVMTQTPLSLPVTPGEPASISCRSSQSLEHNNGNTYLHWFLQKPGQSPQLLIYKVSNRFSGVPDRFSGSGSGTDFTLKISRVEAEDVGVYYCSQSTHVPFTFGQGTKLEIKGGGGSGGGGSGGGGSEVQLVQSGAEVKKPGATVKISCKASGYTFTDYEIHWVQQAPGKGLEWMGAFDPEIGGSAYNQKFKDRVTITADKSSSTAYMELSSLRSEDTAVYYCTDYYGSSSGYFDVWGTGTTVTVSS | MFI | 1410
F3.80.22-H1 (scFv, not shown: small tags and cut ends, also called S009-F3.80.22 humanized antibody VL1 + VH1) scFv: DIVMTQTPLSLPVTPGEPASISCRSSQSLEHNNGNTYLHWFLQKPGQSPQLLIYKVSNRFSGVPDRFSGSGSGTDFTLKISRVEAEDVGVYYCSQSTHVPFTFGQGTKLEIKGGGGSGGGGSGGGGSEVQLVQSGAEVKKPGATVKISCKVSGYTFTDYEIHWVQQAPGKGLEWMGAFDPEIGGSAYNQKFKDRVTITADKSTDTAYMELSSLRSEDTAVYYCTDYYGSSSGYFDVWGQGTTVTVSS | MFI | 1700
F3.80.22-H10 (scFv, not shown: small tags and cut ends, also called S009-F3.80.22 humanized antibody VL2 + VH2) scFv: DIVMTQTPLSLPVTPGEPASISCRSSQSLEHNNGNTYLHWFLHKPGQSPQLLIYKVSNRFSGVPDRFSGSGSGTDFTLKISRVEAEDVGVYYCSQSTHVPFTFGQGTKLEIKGGGGSGGGGSGGGGSEVQLVQSGAEVKKPGATVKISCKASGYTFTDYEIHWVQQAPGKGLEWMGAFDPEIGGSAYNQKFKDRVTITADKSTSTAYMELSSLRSEDTAVYYCTDYYGSSSGYFDVWGQGTTVTVSS | MFI | 1800
F3.80.22-H17 (scFv, not shown: small tags and cut ends, also called S009-F3.80.22 humanized antibody VH1 + VL1a) scFv: EVQLVQSGAEVKKPGATVKISCKVSGYTFTDYEIHWVQQAPGKGLEWMGAFDPEIGGSAYNQKFKDRVTITADKSTDTAYMELSSLRSEDTAVYYCTDYYGSSSGYFDVWGQGTTVTVSSGGGGSGGGGSGGGGSDIVMTQTPLSLPVTPGEPASISCRSSQSLEHNDGNTYLHWFLQKPGQSPQLLIYKVSNRFSGVPDRFSGSGSGTDFTLKISRVEAEDVGVYYCSQSTHVPFTFGQGTKLEIK | MFI | 1790

Shift focus to the following entry.
(Q) # Maximum_MFI lookup, item F3.80.22-H8 (scFv, not shown: small tags and cut ends, also called S009-F3.80.22 humanized antibody VL1a + VH4) scFv: DIVMTQTPLSLPVTPGEPASISCRSSQSLEHNDGNTYLHWFLQKPGQSPQLLIYKVSNRFSGVPDRFSGSGSGTDFTLKISRVEAEDVGVYYCSQSTHVPFTFGQGTKLEIKGGGGSGGGGSGGGGSEVQLVQSGAEVKKPGATVKISCKASGYTFTDYEIHWVQQAPGKGLEWMGAFDPEIGGSAYNQKFKDRVTITADKSSSTAYMELSSLRSEDTAVYYCTDYYGSSSGYFDVWGTGTTVTVSS
(A) 1400
